test system: E28 (patient-derived glioblastoma stem cells of classical subtype); test: phenotypic distance (Euclidean, principal components) from DMSO controls (arbitrary units); higher = stronger morphological change; conditions: 3000 nM; exposure time: 72 h;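 note: cell Painting imaging in 384-well plates, CellProfiler features reduced to at least 20 principal components, Euclidean distance versus same-plate DMSO vehicle wells (0.1% v/v), median over six images per well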
Where a name gives a salt, the structure may show the parent alone.
Grouping by measured phenotypic distance is done with the following cut points: bottom end = under 2, midrange = from 2 up to 4, top end = 4 and over

Consider the following illustrative entries.
[
  {
    "MOLECULE": "CC[C@@H]1C(=O)N(C)c2cnc(Nc3ccc(C(=O)N[C@H]4CC[C@H](N5CCN(CC6CC6)CC5)CC4)cc3OC)nc2N1C(C)C",
    "LABEL": "top end"
  },
  {
    "MOLECULE": "COc1cc([C@@H]2c3cc4c(cc3[C@@H](O[C@@H]3O[C@@H]5CO[C@@H](C)O[C@H]5[C@H](O)[C@H]3O)[C@H]3COC(=O)[C@H]23)OCO4)cc(OC)c1O [Etoposide]",
    "LABEL": "midrange"
  },
  {
    "MOLECULE": "COc1cc(/C=C/C(=O)N2CCC=CC2=O)cc(OC)c1OC",
    "LABEL": "top end"
  },
  {
    "MOLECULE": "O=[N+]([O-])c1ccc2c(c1)S(=O)(=O)C=C2",
    "LABEL": "top end"
  },
  {
    "MOLECULE": "CC1=C(/C=C/C(C)=C/C=C/C(C)=C/C(=O)Nc2ccc(O)cc2)C(C)(C)CCC1 [Retinoic acid p-hydroxyanilide]",
    "LABEL": "top end"
  }
]

Now consider the entry below.
Q) Each molecule maps to one class by phenotypic distance. Which class for C=C[C@H]1CN2CC[C@H]1C[C@@H]2[C@@H](O)c1ccnc2ccc(OC)cc12 [Quinidine hydrochloride monohydrate] ?
A) bottom end
